# assay.target: LXRβ (Homo sapiens)
# Construct: Co-transfection expression plasmids, comprising full-length LXRα (pCMX-h LXRα or LXRβ (pCMX-hLXRβ)); expressed in transfected cells; host or cells: CV-1 African green monkey kidney cells, transient transfection with pCMX-hLXRβ
# Sequence (P55055 whole entry): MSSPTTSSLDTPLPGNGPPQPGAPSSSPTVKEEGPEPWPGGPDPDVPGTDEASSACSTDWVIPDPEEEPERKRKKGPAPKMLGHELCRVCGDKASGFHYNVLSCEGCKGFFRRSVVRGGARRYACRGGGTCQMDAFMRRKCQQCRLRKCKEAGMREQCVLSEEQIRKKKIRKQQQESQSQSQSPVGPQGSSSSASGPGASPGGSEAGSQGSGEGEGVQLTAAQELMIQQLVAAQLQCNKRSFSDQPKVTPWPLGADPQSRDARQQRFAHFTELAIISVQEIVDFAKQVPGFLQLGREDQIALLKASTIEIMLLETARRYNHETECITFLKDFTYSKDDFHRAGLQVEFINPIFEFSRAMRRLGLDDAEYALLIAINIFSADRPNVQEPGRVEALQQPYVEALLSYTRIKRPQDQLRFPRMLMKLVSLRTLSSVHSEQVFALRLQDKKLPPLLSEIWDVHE
# Sequence (P19793 whole entry partner): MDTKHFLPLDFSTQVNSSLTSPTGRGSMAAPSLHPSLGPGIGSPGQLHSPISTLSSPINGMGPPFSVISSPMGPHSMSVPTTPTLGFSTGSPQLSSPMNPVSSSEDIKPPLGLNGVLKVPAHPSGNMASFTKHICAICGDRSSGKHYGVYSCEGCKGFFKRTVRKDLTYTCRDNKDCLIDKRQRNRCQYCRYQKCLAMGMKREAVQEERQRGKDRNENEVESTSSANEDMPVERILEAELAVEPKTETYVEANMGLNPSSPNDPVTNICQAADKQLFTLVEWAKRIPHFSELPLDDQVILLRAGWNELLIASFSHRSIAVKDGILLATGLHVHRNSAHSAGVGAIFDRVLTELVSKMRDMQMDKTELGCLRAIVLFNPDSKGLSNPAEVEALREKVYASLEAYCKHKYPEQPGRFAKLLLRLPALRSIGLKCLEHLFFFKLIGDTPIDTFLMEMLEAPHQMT
# run.description: LXR/LXRE co-transfection assay (luciferase reporter) in CV-1 cells, LXRβ
# Assay type: cell-based
# cond: CV-1 cells transfected with pCMX-hLXRβ and LXREx1-Tk-Luciferase, 20 hours incubation, read-out: LXRbeta agonism EC50
Recorded EC50 by entry
Kindly write the number and append the unit.

`Cc1nc(-c2ccc3c(c2)OC(F)(F)O3)c(-c2cc(-c3cc(F)c(CO)c(S(C)(=O)=O)c3)ccc2-c2cc(C(F)(F)C(=O)NC(C)(C)C)nn2C)o1` yielded EC50 of 0.061 µM

`Cc1nc(-c2ccc3c(c2)OC(F)(F)O3)c(-c2cc(-c3cc(F)c(CO)c(S(C)(=O)=O)c3)ccc2-c2cc(C(F)(F)CO)nn2C)o1` yielded EC50 of 0.074 µM

`Cc1nc(-c2ccc3c(c2)OC(F)(F)O3)c(-c2cc(-c3cc(F)c(CO)c(S(C)(=O)=O)c3)ccc2-c2cc(C(N)=O)nn2C)o1` yielded EC50 of 1.1 µM

Cc1nc(-c2ccc3c(c2)OC(F)(F)O3)c(-c2cc(-c3cccc(S(C)(=O)=O)c3)ccc2-c2cc(C(C)C#N)nn2C)o1 (stereo not shown) [Example 116] yielded EC50 of 0.026 µM

The reported measurements were obtained from patent US9751869B2.
